COMPOUND | melting point
Cc1cc(C(=O)O)cc(C)c1OCCNC(=O)C1Cc2ccccc2N1S(=O)(=O)c1ccc(-c2cccc(C(F)(F)F)c2)cc1 (stereo not drawn) | 120 to 126 °C
O=C1C=C(c2c[nH]c3ccc(Cl)cc23)C(=O)N1 | 254 to 264 °C
COc1ccc2c(c1OC)CN(C=O)CCc1cc(OCc3ccccc3)ccc1CC2 | 140 to 141 °C
COc1cc2cn(-c3nccs3)nc2cc1OC | 184 to 187 °C
C1COCCN2CCOCCOCCN(CCO1)CCSCCSCC2 | 78 to 80 °C
CCOC(=O)c1c(Nc2cccc(SC)c2)n[nH]c1C | 192 to 194 °C
O=C(Nc1c(C(O)(C(F)(F)F)C(F)(F)F)ccc2ccccc12)c1ccc(C(F)(F)F)cc1 | 191 to 192 °C
CCOC(=O)c1sc(Oc2ccc(OCc3ccc4ccccc4n3)cc2)c2c1CCc1cnn(C)c1-2 | 269 to 270 °C

###

COMPOUND | melting point
O=C(c1ccc(Nc2ccnc3cc(C(F)(F)F)ccc23)cc1)N1CC=C(c2ccc(Cl)cc2)CC1 | 225 to 226 °C
Cn1nc(-c2ccc(S(=O)(=O)N3CCn4c(c(C(N)=O)c(Cl)c4-c4ccccc4)C3)s2)cc1C(F)(F)F | 159 to 161 °C
CCn1cc(C(=O)O)c(=O)c2ccc(N)cc21 | 304 to 307 °C
COc1cc(Cl)cc(Cl)c1O | 62 °C
CC(=O)Nc1ccc(C(=O)C2CCN(CC(=O)c3ccc(F)cc3)CC2)cc1 | 168 to 170 °C
COc1cc(N)c2nccc(C=Cc3cccc(C(F)(F)F)c3)c2c1 | 124 to 126 °C
CC(C)(c1ccc(C(C)(C)c2ccc3ccccc3c2O)cc1)c1ccc2ccccc2c1O | 245 to 255 °C
CCOC(=O)C(Cc1ccc(C(C)C)cc1)C(=O)N[C@@H](CC(C)C)C(=O)OC(C)(C)C (some centres undefined) | 68 to 73 °C
Cc1cnn(-c2ccc(Cl)cc2Cl)c(=O)c1Br | 108 °C
COc1ccccc1NC(=O)NCc1nnc(C)n1-c1sc(C)c(C)c1C(=O)c1ccc(Cl)cc1 | 228 to 230 °C
O=S(=O)(c1ccc(Br)cc1)N1CCNCC1 | 102 to 104 °C
CC(=O)N(C)c1nc(C)co1 | 27 to 29 °C
CC(=O)OC1OCC[C@@H]1NC(=O)CCC(=O)Nc1ccc(Nc2ccccc2)cc1 (some centres undefined) | 191 to 192 °C
COc1ccc(C2=NN(c3cnc4ccccc4n3)C(=O)[C@H]3CC=CC[C@@H]23)cc1OC (relative stereo) | 154 to 156 °C

###

COMPOUND | melting point
CC(=O)N1CC(CCN(C)C)Cc2ccc(OCc3ccc(-c4ccccc4)cc3)cc21 (stereo unspecified) | 62 to 63.5 °C
CN1CCCCC1CCc1ccccc1NC(=O)c1cccnc1 (stereo unspecified) | 88 to 90 °C
CCOC(=O)c1nccn1C1Cc2c(cccc2-c2ccccc2)C1=O (stereo unspecified) | 185 °C
CC(=O)NC1(c2ccc(C(C)Cl)cc2)CC1 (stereo unspecified) | 104 to 107 °C
CCCCC(CCCc1cccnc1)CC(NS(=O)(=O)c1ccc(Cl)cc1)C(=O)O (stereo unspecified) | 113 to 114 °C
O=C1c2cc3ccc4c(c3c(-c3ccc5c(c3)OCO5)c2C(=O)N1CCCO)OCO4 | 150 to 152 °C
CCCCc1nc2c(N)nc3ccccc3c2n1CCCC(=NO)c1ccccc1 | 242 to 244 °C
CCC12CCC3=C(CCc4cc(O)ccc43)C1=CCC2=O (stereo unspecified) | 153 to 156 °C
COC(=O)/C=C(\C)c1ccc(OCc2nc(-c3ccccc3)oc2C)cc1 | 125 to 126 °C
Cc1cc(SCCCSc2nnnn2C)nc(N)n1 | 119 to 120 °C
N#CCC(=O)c1cccc(Oc2ccccc2)c1 | 95 to 96 °C
